- Test system: C33A
- PROCEDURE TEXT: Primary qHTS to identify gynecologic anti-cancer compounds using libraries of approved drugs and bioactive compounds (AID 1345084); also: % is scaled to controls: 0 for no effect and ±100 for the full control effect; nearly all actives have a fitted effect of over 55% in size
- EXPERIMENTAL SETUP: Gynecologic cancer cell panel viability, ATPlite luminescence, 48 h; series mostly up to 57.5 µM
Results filed as inconclusive are left out. Calls of active or inactive are those of the source. Calls follow the shape of the dose curve; as a rule, active = well fitted cell-killing curve with a large enough effect; inconclusive = small, poorly fitted or top-dose-only effect, or effect the other way; inactive = flat fitted curve, though single readings scatter.
ASSAY METRIC: activity change, negative = cytotoxicity

Solved entries (count: 5):
Problem: Write down the reported activity change, negative = cytotoxicity of COC(=O)[C@@]1(c2ccc(C)cc2)C[C@H]1CN1CCC(O)(c2ccccc2)CC1 , test system: C33A.
Solution: inactive

Problem: Write down the reported activity change, negative = cytotoxicity of C=C1C(OC2OCC(O)C(O)C2O)CC2C(C)(C)C(O)CCC2(C)C1CC/C(C)=C\CO (centres undefined) , test system: C33A.
Solution: inactive

Problem: Write down the reported activity change, negative = cytotoxicity of CC1(C)CC[C@]2(C(=O)O)[C@H](O)C[C@]3(C)C(=CCC4[C@@]5(C)CC[C@H](O[C@@H]6O[C@H](CO[C@@H]7OC[C@H](O)[C@H](O)[C@H]7O[C@@H]7OC[C@@H](O)[C@H](O)[C@H]7O)[C@@H](O)[C@H](O)[C@H]6O[C@@H]6O[C@H](CO)[C@@H](O)[C@H](O)[C@H]6O)C(C)(C)C5CC[C@]43C)[C@@H]2C1 (some centres undefined) , test system: C33A.
Solution: -1.17% [at 11.6 µM] (inactive)

Problem: Write down the reported activity change, negative = cytotoxicity of COc1ccc(CCO[C@@H]2CCCC[C@H]2N2CC[C@@H](O)C2)cc1OC , test system: C33A.
Solution: inactive

Problem: Write down the reported activity change, negative = cytotoxicity of O=C1NC(Cc2c[nH]c3ccccc23)C(=O)NC1Cc1cnc[nH]1 (centres undefined) , test system: C33A.
Solution: inactive

Others:
Problem: Write down the reported activity change, negative = cytotoxicity of COc1cc(/C=C/C=O)cc(OC)c1O[C@@H]1O[C@H](CO)[C@@H](O)[C@H](O)[C@H]1O , test system: C33A.
Solution: inactive
